Recorded values, source PubChem BioAssay (NCI).

MEASUREMENT DESCRIPTION: NCI Yeast Anticancer Drug Screen. Data for the cln2 rad14 strain (AID 165);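 also: 0% = growth equal to vehicle treated cultures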
CONDITION LABEL: S. cerevisiae cln2 rad14 strain, at 50.0 µM, hits give high values
The panel holds about 79,000 compounds, 15% with a hit somewhere; the sample as a whole holds those more often.
Recorded measurements of growth inhibition, one per entry

| MOLECULE | growth inhibition [%] |
| --- | --- |
| CC(=O)/C=C/C=C/c1ccco1 | -9.7 |
| CC(C)NC(=O)C(C(C)C)C(C)(C)C (configuration not stated) | 12.1 |
| CC(=O)Nc1nc2nccn2c(=O)[nH]1 | -28.3 |
| CCCCCCCCCCCCCCCCS(=O)(=O)N/N=C/c1ccc(N(C)C)cc1 | 12.3 |
| CC(=O)C(CCCCCCCCCCC(C(C)=O)C(C)=O)C(C)=O | -38.6 |
| OC[C@@H]1C2CCC([C@@H]1CO)C2(Cc1ccccc1)Cc1ccccc1 | -73 |
| COc1c2c(cc3c1C(=O)Cc1ccc4c(c1CN(C)CC3)OCO4)OCO2 | 24.4 |
| CC(C)CCOC(=O)NC(Nc1ccc(F)cc1)(C(F)(F)F)C(F)(F)F | -13.3 |
| COC1=C(O)C(=O)N(C)C(=O)C1 | 0.75 |
| CC1(C)N=C(N)NC(Nc2ccc(Cl)cc2)=N1 | -20.8 |
| COc1cc(CCCO)ccc1O | -48.1 |
| Cc1c(Cl)cccc1NC(=O)Oc1ccc(Cl)cc1 | -7.45 |
